- target-entity: KCNQ 2/3 channels (HEK293 cells stably expressing human KCNQ2 and KCNQ3 subunits) (Homo sapiens, UniProt O43525+O43526)
- Construct: expressed in transfected cells; host or cells: HEK293
- test-description: KCNQ2/3 channel activation, thallium flux FLIPR assay with BTC-AM dye
- Assay type: cell-based
- condition-info: HEK293; maximum response relative to the response produced by 10 μM retigabine (set at 100%); read-out: Max. %
property-measured: Emax (%)

INSERT INTO measurements (molecule, property_measured, value_reported) VALUES
  ('COc1ccc(-c2nn(NC(=O)CC3CC4CCC3C4)c(=O)c3ccccc23)cc1 (racemic) [Example 151]', 'Emax', 141),
  ('O=C(Cc1cccc(F)c1F)Nn1nc(-c2ccccc2)c2ccccc2c1=O [Example 25]', 'Emax', 139),
  ('O=C(Cc1ccc(Cl)cc1)Nn1nc(C2CCCC2)c2ccccc2c1=O [Example 72]', 'Emax', 130);
